System: K562
measurement_protocol: Cytotoxicity against human K562 cells after 96 hrs by MTT assay
Assay type: functional, cell-based
test_parameters: K562, 96 h
pIC50: −log10 of the molar value.

# compound, tested_on, pIC50
records = [
    ("Cc1nc(C)c(-c2ccnc(Nc3ccc(N(C)C)cc3)n2)s1", "K562", 7.40),
    ("Cc1nc(N)sc1-c1ccnc(Nc2ccc(N3CCOCC3)cc2)n1 [CYC-116]", "K562", 5.86),
]

---

measurement_protocol: Inhibition of PKC
readout: Ki

# compound, readout, result
rows = [
    ("Cc1nc(N)sc1-c1ccnc(Nc2ccc(N3CCOCC3)cc2)n1 [CYC-116]", "Ki", "> 10 µM"),
]

These data points were gathered from ChEMBL document CHEMBL1155519.
